target: EP3 membrane (EP3 receptor) (Homo sapiens); construct: purchased Millipore HTS092M; test: [3H]-PGE2 binding; EP3 competition binding (SPA)
Sequence (P43115 whole entry): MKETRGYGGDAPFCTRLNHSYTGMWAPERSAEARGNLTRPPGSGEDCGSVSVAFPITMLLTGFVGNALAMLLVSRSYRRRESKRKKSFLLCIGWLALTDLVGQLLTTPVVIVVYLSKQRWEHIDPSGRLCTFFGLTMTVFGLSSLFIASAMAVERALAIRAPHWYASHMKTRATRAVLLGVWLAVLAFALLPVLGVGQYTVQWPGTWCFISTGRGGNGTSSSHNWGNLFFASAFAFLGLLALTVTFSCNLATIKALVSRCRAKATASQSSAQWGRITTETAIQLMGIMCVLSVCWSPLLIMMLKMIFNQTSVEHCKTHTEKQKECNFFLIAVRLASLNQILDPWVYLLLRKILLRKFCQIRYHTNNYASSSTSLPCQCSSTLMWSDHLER
pKi: −log10 of the molar value.
experimental readout: pKi

[a] O=C(NC/C=C1\CC(F)(F)Cc2cnn(Cc3ccc(Cl)cc3Cl)c21)NS(=O)(=O)c1ccc(Cl)cc1 [Compound #48]
[b] O=C(NC/C(F)=C1\CCCc2cnn(-c3ccc(C(F)(F)F)cc3)c21)NS(=O)(=O)c1cc(Cl)c(Cl)s1 [Compound #125]
[c] O=C(NC/C(F)=C1\CCc2cnn(-c3ccc(C(F)(F)F)cc3)c21)NS(=O)(=O)c1cc(Cl)c(Cl)s1 [Compound #130]
[d] O=C(NC/C=C1\CCCc2c(C(F)F)nn(Cc3ccc(Cl)cc3Cl)c21)NS(=O)(=O)c1ccc(Cl)cc1 [Compound #47]
## Task Could you arrange the 4 compounds above by pKi, starting with the largest number? Reply with the labels, ordered as the question asks.
## Result b, a, c, d
(b: 8.52, a: 8.30, c: 7.40, d: 7.19)

[I] COc1nc2ccc(S(=O)(=O)NC(=O)NC/C=C3\CCCc4cnn(Cc5ccc(Cl)cc5Cl)c43)cc2o1 [Compound #177]
[II] O=C(NC/C(F)=C1\CCCc2cnn(CCc3ccc(C(F)(F)F)cc3)c21)NS(=O)(=O)c1cc(Cl)c(Cl)s1 [Compound #157]
## Task Select one: I or II . Criterion: greater recorded pKi. Give the label under which the chosen entry appears.
## Result I

* * *

molecular target: CHO cells over-expressing the EP3 receptor (Homo sapiens); assay: CHO cell cAMP assay; EP3 cAMP antagonist dose response (sulprostone reference), HTRF; conditions: sulprostone 700 nM (EC80) and FSK 2 μM (EC70); read-out: CHO_cAMP IC50
experimental readout: IC50 (nM)

[I] O=C(NC/C=C1\CC(F)(F)Cc2cnn(-c3cccc(C(F)(F)F)c3)c21)NS(=O)(=O)c1ccc(Cl)cc1
[II] O=C(NC/C(F)=C1\CCc2cnn(-c3ccc(C(F)(F)F)cc3)c21)NS(=O)(=O)c1cc(Cl)c(Cl)s1
## Task // pick min by IC50: I , II When you have decided, please share the label of that item.
## Result II
(II: 182 nM, I: 8200 nM)

* * *

biological target: EP3 membrane (EP3 receptor) (Homo sapiens); construct: purchased Millipore HTS092M; assay: [3H]-PGE2 binding; EP3 competition binding (SPA)
experimental readout: Ki (nM)

Answered examples (5):
molecule	Ki (nM)
O=C(NC/C=C1\CCCc2cnn(Cc3ccc(Cl)cc3Cl)c21)NS(=O)(=O)c1ccc(Cl)cc1 [Compound #4]	4
Cc1cc(S(=O)(=O)NC(=O)NC/C=C2\CCCc3cnn(-c4ccc(Cl)cc4Cl)c32)sc1Cl [Compound #196]	1
O=C(NC/C(F)=C1\CCCn2nnc(Cc3ccccc3)c21)NS(=O)(=O)c1cc(Cl)c(Cl)s1 [Compound #129]	29
O=C(/C=C/C=C1\CCCc2cnn(Cc3ccc(Cl)cc3Cl)c21)NS(=O)(=O)c1cc(Cl)c(Cl)s1 [Compound #6]	84
Cc1ncc(S(=O)(=O)NC(=O)NC/C(F)=C2\CCCc3cnn(Cc4ccc(Cl)cc4Cl)c32)cc1Cl [Compound #197]	8

[A] CC(C)n1cc(S(=O)(=O)NC(=O)NC/C(F)=C2\CCCc3cnn(Cc4ccc(Cl)cc4Cl)c32)cn1 [Compound #170]
[B] Cn1ncc2cc(S(=O)(=O)NC(=O)NC/C(F)=C3\CCCc4cnn(Cc5ccc(Cl)cc5Cl)c43)ccc21 [Compound #195]
## Task Please choose the item with the lower Ki value from this pair: A and B Bench note: the answer is the label of the chosen record.
## Result B
(B: 45 nM, A: 612 nM)
